tested on: MCF-7 cells; test: MTT assay, metabolic activity (cytotoxicity); type: cell-based, human; conditions: Homo sapiens, MCF7, 48 h incubation, mean ± SEM
Would you mind telling me the reported IC50 of each entry?
I only need the number, in µM, no unit after it.

IC50 of C=C1C(=O)C[C@H](c2ccc(OC)cc2)O[C@H]1c1ccccc1 (relative stereo) [Analog 13l] on MCF-7 cells?
203

IC50 of C=C1C(=O)C[C@H](CC)O[C@H]1CCCC (relative stereo) [Analog 13b] on MCF-7 cells?
106

IC50 of C=C1C(=O)C[C@H](CC)O[C@H]1C(C)C (relative stereo) [Analog 13a] on MCF-7 cells?
20.4

IC50 of C=C1C(=O)C[C@H](c2ccccc2)O[C@H]1C(C)C (relative stereo) [Analog 13g] on MCF-7 cells?
8.63

---

system: MCF-7 cells; assay: MTT assay, metabolic activity (cytotoxicity); format: cell-based, human; settings: Homo sapiens, MCF7, 48 h incubation, mean ± SEM
Would you mind telling me the reported IC50 of each entry?
I only need the number, in µM, no unit after it.

Need IC50, item C=C1C(=O)C[C@H](C(C)C)O[C@H]1c1ccccc1 (relative stereo) [Analog 13f]
69.7

Need IC50, item C=C1C(=O)C[C@H](C(C)C)O[C@H]1C(C)C (relative stereo) [Analog 13d]
14

Need IC50, item C=C1C(=O)C[C@H](c2ccc(OC)cc2)O[C@H]1C(C)C (relative stereo) [Analog 13j]
9.11

Need IC50, item C=C1C(=O)C[C@H](CC)O[C@H]1c1ccccc1 (relative stereo) [Analog 13c]
36

---

tested on: HL-60 cells; assay: MTT assay, metabolic activity (cytotoxicity); format: cell-based, human; settings: 48 h incubation, MTT; mean ± SEM; read-out: IC50 HL-60
Would you mind telling me the reported IC50 of each entry?
I only need the number, in µM, no unit after it.

Need IC50, item N.N.O=C([O-])C1(C(=O)[O-])CCC1.[Pt+2] [Carboplatin, carboplatin, reference compound]
2.53

Need IC50, item C=C1C(=O)C[C@H]([c-]2cccc2)O[C@H]1C(C)C.[Fe+2].c1cc[cH-]c1 (relative stereo) [Analog 13m]
3.87

Need IC50, item C=C1C(=O)C[C@H](c2ccccc2)O[C@H]1C(C)C (relative stereo) [Analog 13g]
3.69

Need IC50, item C=C1C(=O)C[C@H](c2ccc(OC)cc2)O[C@H]1C(C)C (relative stereo) [Analog 13j]
3.75

Need IC50, item C=C1C(=O)C[C@H](c2ccccc2)O[C@H]1CCCC (relative stereo) [Analog 13h]
134

---

system: MCF-7 cells; assay: MTT assay, metabolic activity (cytotoxicity); assay type: cell-based, human; conditions: Homo sapiens, MCF7, 48 h incubation, mean ± SEM
Would you mind telling me the reported IC50 of each entry?

Need IC50, item C=C1C(=O)C[C@H](c2ccccc2)O[C@H]1c1ccccc1 (relative stereo) [Analog 13i]
> 200 µM

Need IC50, item C=C1COC(c2ccc(OC)cc2)CC1=O (stereo not shown) [Analog 15d]
> 200 µM

Need IC50, item C=C1C(=O)C[C@H](c2ccc(OC)cc2)O[C@H]1CCCC (relative stereo) [Analog 13k]
> 100 µM

Need IC50, item C=C1C(=O)C[C@H](C(C)C)O[C@H]1CCCC (relative stereo) [Analog 13e]
> 150 µM
